Test system: Shigella dysenteriae
Experiment: Antimicrobial activity against Shigella dysenteriae by liquid microdilution assay
Type: functional
Quantity measured: MIC (µg/mL)
Answers are plain numbers, in µg/mL.

Example results:
Compound: Oc1cc(O)cc(-c2cc3ccc(O)cc3o2)c1
Unit annotation: µg/mL
MIC: 78
//
Compound: CC(C)(O)C(O)Cc1cc2cc(-c3cc(O)cc(O)c3)oc2cc1O (stereo not given)
Unit annotation: µg/mL
MIC: 78
//
Compound: CC(C)=CCc1c(O)cc(-c2cc3ccc(O)cc3o2)cc1O
Unit annotation: µg/mL
MIC: 5

# map each compound to its MIC
1. COc1c(O)cc2oc(-c3cc(O)cc(O)c3)cc2c1CC=C(C)C
2. CC1(O)C=Cc2c(c(O)cc3cc(-c4cc(O)cc(O)c4)oc23)OC1 (stereo not given)

5
78

----------
Test system: Salmonella typhi
Assay: Antimicrobial activity against Salmonella typhi by liquid microdilution assay
Type: functional, Salmonella enterica subsp. enterica serovar Typhi
Settings: Salmonella enterica
Kindly state MIC for each of the entries shown.
Give bare numbers, in µg/mL.

Below, 3 compounds whose answers are already recorded.
Compound: CC(C)(O)C(O)Cc1cc2cc(-c3cc(O)cc(O)c3)oc2cc1O (stereo not given)
Unit annotation: µg/mL
MIC: 156

Compound: CC(C)=CCc1c(O)cc(-c2cc3ccc(O)cc3o2)cc1O
Unit annotation: µg/mL
MIC: 10

Compound: CC1(O)C=Cc2c(c(O)cc3cc(-c4cc(O)cc(O)c4)oc23)OC1 (stereo not given)
Unit annotation: µg/mL
MIC: 39

List the reported MIC of each compound below.
1. Oc1cc(O)cc(-c2cc3ccc(O)cc3o2)c1
2. COc1c(O)cc2oc(-c3cc(O)cc(O)c3)cc2c1CC=C(C)C

[78, 5]

----------
System: Bacillus cereus
Assay: Antimicrobial activity against Bacillus cereus by liquid microdilution assay
Format: functional
Quantity measured: MIC (µg/mL)
Give bare numbers, in µg/mL.

Please review the entries below; each comes with its answer.
Compound: CC1(O)C=Cc2c(c(O)cc3cc(-c4cc(O)cc(O)c4)oc23)OC1 (centres undefined)
Unit annotation: µg/mL
MIC: 10
//
Compound: COc1c(O)cc2oc(-c3cc(O)cc(O)c3)cc2c1CC=C(C)C
Unit annotation: µg/mL
MIC: 5

Provide MIC values for the following items, in order.
1. CC(C)(O)C(O)Cc1cc2cc(-c3cc(O)cc(O)c3)oc2cc1O (centres undefined)
2. CC(C)=CCc1c(O)cc(-c2cc3ccc(O)cc3o2)cc1O

1: 156; 2: 78

----------
Please respond with reported IC50 for every item in the list.
Test system: RAW264.7
Assay: Antiinflammatory activity against mouse RAW264.7 cells assessed as reduction of IFNgamma-induced NO production
Assay type: functional, cell-based
Numbers only, in µM.

Some compounds with known IC50 results, for comparison:
Compound: CC(C)=CCc1c(O)cc(-c2cc3ccc(O)cc3o2)cc1O [MORACIN C]
IC50 / µM: 8

Compound: CC1(C)C=Cc2c(O)cc(-c3cc4ccc(O)cc4o3)cc2O1 [MORACIN D]
IC50 / µM: 18

Compound: CC1(C)Oc2cc3oc(-c4cc(O)cc(O)c4)cc3cc2CC1O (stereo not drawn) [(+/-)-MORACIN P]
IC50 / µM: 19.3

Attention now shifts to the item below.
Recorded IC50 (compound CC(C)(O)C(O)Cc1cc2cc(-c3cc(O)cc(O)c3)oc2cc1O (centres undefined) ): 14.3

----------
Assay: Antioxidant activity assessed as DPPH radical scavenging activity
Format: physicochemical
Quantity measured: EC50 (µg/mL)
One number for each entry, in µg/mL.

Compound: COc1c(O)cc2oc(-c3cc(O)cc(O)c3)cc2c1CC=C(C)C
Observed value: 4.12

Compound: CC1(O)C=Cc2c(c(O)cc3cc(-c4cc(O)cc(O)c4)oc23)OC1 (centres undefined)
Observed value: 6.08

Compound: CC(C)=CCc1c(O)ccc2cc(-c3cc(O)cc(O)c3)oc12
Observed value: 5.06

Consider now this further compound.
Record summary for CC(C)(O)C(O)Cc1cc2cc(-c3cc(O)cc(O)c3)oc2cc1O (centres undefined) : reported EC50 = 7.17

----------
System: A549
Assay: Cytotoxicity against human A549 cells after 96 hrs by MTT assay
Format: functional, cell-based
Conditions: A549, 96 h
Quantity measured: IC50

Below: 3 molecules and their reported IC50.
Structure smiles string: Oc1cc(O)cc(-c2cc3cc4ccoc4cc3o2)c1
IC50: 7.3 µg/mL
//
Structure smiles string: CC(C)=CCc1cc2cc(-c3cc(O)cc(O)c3)oc2cc1O
IC50: > 10 µg/mL
//
Structure smiles string: O=Cc1cc2cc(-c3cc(O)cc(O)c3)oc2cc1O
IC50: > 10 µg/mL

Moving on to the next molecule.
Entry C/C(=C/Cc1c(O)c2c(c3cc(-c4cc(O)cc(O)c4)oc13)C=CC(C)(C)O2)CCCC(C)(C)O , A549 data, IC50 value: > 10 µg/mL

----------
Target: Tyrosinase (Agaricus bisporus, UniProt O42713)
Sequence (O42713 whole entry): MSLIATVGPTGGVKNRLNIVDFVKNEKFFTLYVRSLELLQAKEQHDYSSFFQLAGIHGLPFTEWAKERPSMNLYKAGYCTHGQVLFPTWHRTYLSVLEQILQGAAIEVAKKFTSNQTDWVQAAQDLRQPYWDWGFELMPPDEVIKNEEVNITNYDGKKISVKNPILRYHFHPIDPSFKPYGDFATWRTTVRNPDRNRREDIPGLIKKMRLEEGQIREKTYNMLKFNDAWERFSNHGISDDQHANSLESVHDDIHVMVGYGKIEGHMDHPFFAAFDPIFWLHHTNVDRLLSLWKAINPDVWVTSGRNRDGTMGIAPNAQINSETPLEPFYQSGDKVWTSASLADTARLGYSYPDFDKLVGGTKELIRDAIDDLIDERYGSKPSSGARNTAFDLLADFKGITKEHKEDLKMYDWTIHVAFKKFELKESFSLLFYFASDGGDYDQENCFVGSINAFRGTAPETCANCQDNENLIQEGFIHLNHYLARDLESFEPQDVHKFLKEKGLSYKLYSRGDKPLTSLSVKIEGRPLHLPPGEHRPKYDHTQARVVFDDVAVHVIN
Quantity measured: pIC50
One number for each entry, as −log10 of the molar value.

Field pIC50 (system: Tyrosinase (Agaricus bisporus, UniProt O42713)) for entry CC1(C)Oc2cc3oc(-c4cc(O)cc(O)c4)cc3cc2CC1O (stereo not drawn) [(+/-)-MORACIN P] = 5.54

----------
Experiment: Inhibition of alpha-glucosidase (unknown origin)
Parameters: species or system Homo sapiens
Quantity measured: IC50 (µM)
Give bare numbers, in µM.

Recorded results for 2 compounds are shown here.
Structure smiles string: CC1(C)C=Cc2c(O)cc(-c3cc4ccc(O)cc4o3)cc2O1
Observed value: 2.54
//
Structure smiles string: CC(C)=CCc1c(O)cc(-c2cc3ccc(O)cc3o2)cc1O
Observed value: 4.04

Lab note: next compound to report on.
Summary for this compound, CC(C)=CCc1cc2cc(-c3cc(O)cc(O)c3)oc2cc1O : IC50 is 2.76
